# Test system: mRANKL induced osteoclastogenesis
# method notes: mRANKL induced osteoclastogenesis assay
# Type: cell-based, mouse
# condition summary: Mus musculus; +mRANKL
pIC50: −log10 of the molar value.

{"columns": ["compound string", "system", "pIC50"],
 "data": [
  ["CC(=O)/C(=N\\Nc1ccccc1C(=O)O)C(=O)Nc1ccccn1", "mRANKL induced osteoclastogenesis", 5.38]
]}

Provenance of the data: paper PMC9468151
